Target: human β3 adrenergic receptor (Homo sapiens, UniProt P13945)
Construct: expressed in transfected cells; host or cells: CHO cells, stably transfected
Sequence (P13945 whole entry): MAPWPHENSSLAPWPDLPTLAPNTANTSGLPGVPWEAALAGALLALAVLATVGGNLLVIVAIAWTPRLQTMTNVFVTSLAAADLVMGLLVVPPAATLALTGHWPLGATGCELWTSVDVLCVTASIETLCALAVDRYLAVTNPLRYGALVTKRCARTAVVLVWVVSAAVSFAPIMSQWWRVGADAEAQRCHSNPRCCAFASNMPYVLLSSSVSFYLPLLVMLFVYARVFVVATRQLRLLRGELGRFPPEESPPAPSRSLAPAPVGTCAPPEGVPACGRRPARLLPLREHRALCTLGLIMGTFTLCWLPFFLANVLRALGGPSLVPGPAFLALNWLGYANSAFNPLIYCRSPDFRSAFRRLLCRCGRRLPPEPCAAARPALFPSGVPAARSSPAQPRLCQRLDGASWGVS
Assay: Functional assay: cAMP production (LANCE) in CHO cells expressing β3 adrenergic receptor
Type: cell-based
Details: Table 5; read-out: Human β3 Functional
Metric: EC50

stdin: Can you look up the measured EC50 of CC(C(=O)Nc1ccc(C[C@@H]2CC[C@H]([C@H](O)c3ccccc3)N2)cc1)n1ccccc1=O (single isomer, unassigned) [Example 203] for me?
stdout: 1 to 10 nM

###

Target: human β3 adrenergic receptor (Homo sapiens, UniProt P13945)
Construct: expressed in transfected cells; host or cells: CHO cells, stably transfected
Assay: Functional assay: cAMP production (LANCE) in CHO cells expressing β3 adrenergic receptor
Format: cell-based
Details: Table 4; text b832: human β3 functional activity; read-out: Human β3 Binding
pEC50: −log10 of the molar value.
Metric: pEC50

stdin: Notebook: pull reported pEC50 for human β3 adrenergic receptor (Homo sapiens, UniProt P13945), entry Cc1nc(CC(=O)Nc2ccc(C[C@@H]3CC[C@H]([C@H](O)c4ccccc4)N3)cc2)c(C)s1
stdout: 8.00 to 9.00

###

So I've got a bunch of molecules here, and I need their pEC50 values.
Target: human β3 adrenergic receptor (Homo sapiens)
Construct: expressed in transfected cells; host or cells: CHO cells, stably transfected
Experiment: Functional assay: cAMP production (LANCE) in CHO cells expressing β3 adrenergic receptor
Assay type: cell-based
Conditions: cAMP production, CHO cells; given as a range; read-out: human β3 functional activity
pEC50: −log10 of the molar value.

{"columns": ["Molecule", "pEC50"],
 "data": [
  ["O=C(Nc1ccc(C[C@@H]2CC[C@H]([C@H](O)c3ccccc3)N2)cc1)C1CCc2cccc(=O)n21 (single isomer, unassigned)", "> 9.00"]
]}

stdin: Can you look up the measured pEC50 of O=C(Nc1ccc(C[C@@H]2CC[C@H]([C@H](O)c3ccccc3)N2)cc1)[C@@H]1CCc2cccc(=O)n21 (single isomer, unassigned) for me?
stdout: 8.00 to 9.00

Value source: patent US8653260B2
